This listing pairs molecules with measured inhibition of growth at 10 µg/mL.
- Tested on: Escherichia coli
- MEASUREMENT DESCRIPTION: Growth inhibition of Escherichia coli at 10 ug/ml
- Type: functional
- TEST CONTEXT: read-out: GI

- QUERY SMILES: "C/C(=N\\Nc1nc(-c2ccc(C)cc2)cs1)c1sc(-c2ccccc2)nc1C"
  inhibition of growth at 10 µg/mL (%): 94.1
- QUERY SMILES: "C/C(=N\\Nc1nc(-c2ccc(F)cc2)cs1)c1sc(-c2ccccc2)nc1C"
  inhibition of growth at 10 µg/mL (%): 74
- QUERY SMILES: "C/C(=N\\Nc1nc(-c2ccc(Cl)cc2)cs1)c1sc(C)nc1C"
  inhibition of growth at 10 µg/mL (%): 63.9
